Attribute: TGI
System: MDA-MB-435
Test Method Notes: NCI tumour cell line growth inhibition, 48 h

* CC(=O)OCC1OC(OC2CCCC[Si](c3ccccc3)(c3ccccc3)O2)C(OC(C)=O)C(OC(C)=O)C1OC(C)=O (stereo unspecified) | > 100 µM
* O=CC(NC(=O)N(CCCl)N=O)C(O)C(O)C(O)CO (stereo unspecified) | > 1250 µM
* CCCCCCCCCCCCC/C=C/[C@H]1[C@@H](C(=O)OC)N1S(=O)c1ccc(C)cc1 (stereo partly specified) | > 100 µM

Lookup: What does the record list as TGI for COc1cc(-c2cc(/C=C3\C(=O)Nc4ccc(Cl)cc43)[nH]n2)cc(OC)c1OC ?
Found: > 100 µM

Lookup: What does the record list as TGI for O=C(/C=C\c1ccc(-c2ccccc2)cc1)c1cccs1 ?
Found: > 100 µM

Lookup: What does the record list as TGI for NS(=O)(=O)c1ccc(Nc2ncc(-c3ccccc3)o2)cc1 ?
Found: > 25 µM

---

System: M14 melanoma
Test Method Notes: NCI tumour cell line growth inhibition, 48 h
Property Measured: TGI

* CC[N+](C)(CC)CCNC(=O)C(O)(c1ccccc1)c1ccccc1 | > 100 µM
* Cc1[nH]c2ncn(Nc3ccccc3)c(=N)c2c1Cc1ccccc1 | > 100 µM
* OCC(CO)C1c2cccc3ccc4cccc1c4c23 | > 100 µM
* CCCCC/C=C/C(=O)CCc1ccc(O)c(OC)c1 | 19.4 µM
* CC(C)(Oc1ccc(C(=O)c2ccc(Cl)cc2)cc1Cl)C(=O)Nc1c(Cl)cccc1Cl | > 100 µM

Lookup: What does the record list as TGI for O=C(Nc1cccc(-n2cc(-c3ccncc3)c(-c3ccc(Cl)c(O)c3)n2)c1)Nc1cccc(C(F)(F)F)c1 ?
Found: 10.8 µM

Lookup: What does the record list as TGI for CN(N=O)C(=O)N(N)CCCCC(NC(=O)OCc1ccccc1)C(=O)OCc1ccccc1 (stereo unspecified) ?
Found: 70.7 µM

Lookup: What does the record list as TGI for CCCCCOC(=O)C(=O)Nc1n[nH]nc1C(N)=O ?
Found: > 100 µM

Lookup: What does the record list as TGI for CN(CCN(C)CCN(C)C(=O)Cc1ccc(Cl)c(Cl)c1)CCN1CCCC1 ?
Found: > 100 µM

Lookup: What does the record list as TGI for COC(=O)Cc1ccc(Oc2nc3ccccc3nc2-c2cccs2)cc1 ?
Found: > 100 µM

---

Tested on: RPMI-8226 leukemia
Test Method Notes: NCI tumour cell line growth inhibition, 48 h
Where a SMILES comes first, the peptide text is derived from it. The star is where a group is joined. CH2Cl = ClC*
Attribute: TGI

Answered examples (5):
* CC1OC(=O)C2CC3CCCCC3C(/C=C/C3CCCC(C)N3C)C12 (stereo unspecified) | > 100 µM
* COc1ccc(C2CC(c3ccc4ccccc4c3O)=NN2)cc1OC (stereo unspecified) | > 100 µM
* O=c1[nH]c2cc(Cl)ccc2nc1/C(=N/Nc1ccccc1)C(O)c1ccco1 (stereo unspecified) | > 100 µM
* CC(=O)NC(CC(C)C)C(=O)NC(Cc1ccccc1)C(=O)CCl (stereo not drawn) (Ac-Leu-Phe-CH2Cl; configuration not given here) | > 25 µM
* CN=c1oc2ccccc2cc1C(N)=O | > 100 µM

Lookup: What does the record list as TGI for Cn1cc(C2=C(c3cn(C)c4cc(C(=O)O)ccc34)C(=O)NC2=O)c2ccccc21 ?
Found: > 25 µM

Lookup: What does the record list as TGI for CC(C)(C)CC(C)(C)c1ccc(OCCSC(=N)N)cc1 ?
Found: 3.59 µM

Lookup: What does the record list as TGI for Cc1ccc(N=NC(=O)NNc2ccc(C)c([N+](=O)[O-])c2)cc1[N+](=O)[O-] ?
Found: 85.8 µM

Lookup: What does the record list as TGI for O=C(Nc1cccc(-n2cc(-c3ccncc3)c(-c3ccc(Cl)c(O)c3)n2)c1)Nc1cccc(C(F)(F)F)c1 ?
Found: > 32.5 µM

Lookup: What does the record list as TGI for COC(=O)c1c2c(c(C)[n+]([O-])c1C)C(=O)C(NCc1cccc(Cl)c1)=CC2=O ?
Found: 7.81 µM

Lookup: What does the record list as TGI for O=C(O)CCC(=O)C(=O)O ?
Found: > 100 µM

---

Attribute: TGI
System: PC-3 prostate
Test Method Notes: NCI tumour cell line growth inhibition, 48 h

* Cc1ccc(N=NC(=O)NNc2ccc(C)c([N+](=O)[O-])c2)cc1[N+](=O)[O-] | > 100 µM
* C=C(C)[C@@H]1C/C=C(\COC(=O)[C@H](OC(C)=O)C(NC(=O)c2ccccc2)c2ccccc2)CC[C@H]2O[C@]2(C)CC/C=C(\C)CC1 (stereo partly specified) | > 50 µM

Lookup: What does the record list as TGI for C/C=C(/C(=C/C)c1ccc(O)cc1)c1ccc(O)cc1 ?
Found: 17.4 µM

Lookup: What does the record list as TGI for CC(C)(C)CC(C)(C)c1ccc(OCCSC(=N)N)cc1 ?
Found: 4.17 µM

Lookup: What does the record list as TGI for COc1cccc(NC(=O)CC(=O)Nc2cccc(OC)c2)c1 ?
Found: > 100 µM

Lookup: What does the record list as TGI for C=C1C(=O)O[C@H]2[C@H]1CC/C(COC(=O)NCc1[nH]nc3ccccc13)=C\CC[C@@]1(C)O[C@@H]21 ?
Found: 5.79 µM

Lookup: What does the record list as TGI for CC(C)(C)c1cc2c(O)c(c1)C(c1ccccc1)c1cc(C(C)(C)C)cc(c1O)Cc1cc(C(C)(C)C)cc(c1O)C(c1ccccc1)c1cc(C(C)(C)C)cc(c1O)C2 (stereo unspecified) ?
Found: > 100 µM

Lookup: What does the record list as TGI for CC(=O)OCC1OC(OC2CCCC[Si](c3ccccc3)(c3ccccc3)O2)C(OC(C)=O)C(OC(C)=O)C1OC(C)=O (stereo unspecified) ?
Found: > 100 µM

Lookup: What does the record list as TGI for C=CCCC(=O)N1CCC(C(=O)OCC)C1=O (stereo unspecified) ?
Found: > 100 µM

Lookup: What does the record list as TGI for O=C1Nc2ccccc2S/C1=C\c1ccc(C(F)(F)F)cc1 ?
Found: > 100 µM

Lookup: What does the record list as TGI for Cc1nc2c(=O)n(C)c(=O)n(C)c2o1 ?
Found: > 100 µM

Lookup: What does the record list as TGI for Fc1cc(-c2cc(-c3ccccc3)n[nH]2)c(Cl)cc1Cl ?
Found: > 100 µM

Lookup: What does the record list as TGI for Cc1c(C(=O)C(=O)c2ccccc2)c(C)c(C(=O)C(=O)c2ccccc2)c(C)c1C(=O)C(=O)c1ccccc1 ?
Found: > 100 µM

Lookup: What does the record list as TGI for CCCCC/C=C/C(=O)CCc1ccc(O)c(OC)c1 ?
Found: 18 µM

Lookup: What does the record list as TGI for CN(C)c1ccc(O)c2c1CC1CC3C(N(C)C)C(=O)C(C(N)=O)=C(O)C3(O)C(=O)C1=C2O (stereo unspecified) ?
Found: 48.7 µM

Lookup: What does the record list as TGI for O=CC(NC(=O)N(CCCl)N=O)C(O)C(O)C(O)CO (stereo unspecified) ?
Found: > 1250 µM

Lookup: What does the record list as TGI for O=c1[nH]c2cc(Cl)ccc2nc1/C(=N/Nc1ccccc1)C(O)c1ccco1 (stereo unspecified) ?
Found: > 100 µM

Lookup: What does the record list as TGI for [N-]=[N+]=NC1=CC(=O)c2cccc3cccc1c23 ?
Found: > 100 µM

Lookup: What does the record list as TGI for CCOC(=O)c1c2c(n(Cc3ccc(Cl)cc3Cl)c1C)-c1nc(Cc3ccccc3)[nH]c1C(=O)C2=O ?
Found: 4.9 µM

---

System: LXFL 529 NSCLC
Test Method Notes: NCI tumour cell line growth inhibition, 48 h
Attribute: TGI

- CCOC(=O)c1oc2c(OC)cc(Cl)c3c2c1CCC3: > 100 µM
- O=[N+]([O-])c1cccc2nc3ccccc3c(NCCO)c12: 0.0157 µM
- Cc1nc(C(N)=S)sc1C(=O)CC(=O)C(=O)Nc1c(C(C)C)cccc1C(C)C: > 100 µM
- COc1cc(Br)c(CC2NCCc3cc(OC)c(OC)cc32)cc1OC (configuration not stated): > 100 µM
- COc1cc([C@@H]2c3cc4c(cc3[C@@H](NC(=O)c3cccc(N)c3)C3COC(=O)[C@@H]32)OCO4)cc(OC)c1O (some centres not stated): > 100 µM
- Cc1cc(C)nc(NS(=O)(=O)c2ccc(NC(=O)c3cccc4c(Nc5ccc(S(=O)(=O)N=C(N)N)cc5)c5ccc(Cl)cc5nc34)cc2)n1: > 100 µM

Lookup: What does the record list as TGI for C[C@]12CCc3nonc3C1CC[C@@H]1C2CC[C@]2(C)C(=O)/C(=N\O)CC12 (some centres not stated) ?
Found: > 100 µM

Lookup: What does the record list as TGI for O=C1C(c2ccccc2)=C(c2ccccc2)C(c2ccc(-c3ccc(C4=C(c5ccccc5)C(=O)C(c5ccccc5)=C4c4ccccc4)cc3)cc2)=C1c1ccccc1 ?
Found: > 100 µM

Reference source: PubChem BioAssay (NCI)
